Biological target: human gene recombinant 5-HT7 receptor expressed in CHO cells (Homo sapiens, UniProt P34969)
Construct: expressed in transfected cells; host or cells: CHO cells (membrane preparation)
Sequence (P34969 whole entry): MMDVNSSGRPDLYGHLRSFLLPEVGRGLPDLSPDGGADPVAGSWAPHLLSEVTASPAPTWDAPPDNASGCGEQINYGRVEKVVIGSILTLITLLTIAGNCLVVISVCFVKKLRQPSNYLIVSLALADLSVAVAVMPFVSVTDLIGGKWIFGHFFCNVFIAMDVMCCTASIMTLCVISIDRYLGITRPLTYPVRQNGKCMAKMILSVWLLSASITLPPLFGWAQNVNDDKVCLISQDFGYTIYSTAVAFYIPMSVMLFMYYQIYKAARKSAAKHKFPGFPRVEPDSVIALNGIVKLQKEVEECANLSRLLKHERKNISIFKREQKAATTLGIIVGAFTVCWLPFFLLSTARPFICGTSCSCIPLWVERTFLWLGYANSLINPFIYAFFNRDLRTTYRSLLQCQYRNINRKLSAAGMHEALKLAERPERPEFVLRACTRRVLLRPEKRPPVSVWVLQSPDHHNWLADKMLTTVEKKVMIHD
Test: Binding affinity for the 5-HT7 serotonin receptor ([3H]LSD radioligand)
Conditions: 10 μM
Structures can show the parent of a compound that is named as a salt.
outcome_measure: inhibition at 10 µM (%)

molecule | numeric_result
O=C(CCCCN1CCN(Cc2ccccc2)CC1)n1c2ccccc2c2ccccc21 [Example 2.29, hydrochloride] | 92
c1ccc(CN2CCN(CCCn3c4ccccc4c4ccccc43)CC2)cc1 | 88.7
c1ccc(C2CCN(CCCn3c4ccccc4c4ccccc43)CC2)cc1 | 91.1
COc1ccccc1N1CCN(CCCCn2c3ccccc3c3ccccc32)CC1 | 92.5
Oc1ccccc1N1CCN(CCCCCCn2c3ccccc3c3ccccc32)CC1 | 90.5

---

pKi: −log10 of the molar value. Structures can show the parent of a compound that is named as a salt.
These records show pKi for 5-HT2C (Homo sapiens, UniProt P28335).
outcome_measure: pKi

compound | numeric_result
O=C(CCCCCN1CCC(Cc2ccccc2)CC1)n1c2ccccc2c2ccccc21 [Example 2.10, hydrochloride] | 6.17
CC1CCCN(CCCCCC(=O)n2c3ccccc3c3ccccc32)C1 (stereo not drawn) [Example 2.5, hydrochloride] | 6.31
O=C(CCCCN1CCC(c2ccccc2)CC1)n1c2ccccc2c2ccccc21 [Example 2.25, hydrochloride] | 6.04

---

Biological target: UniProt P08908
Sequence (P08908 whole entry, species assumed): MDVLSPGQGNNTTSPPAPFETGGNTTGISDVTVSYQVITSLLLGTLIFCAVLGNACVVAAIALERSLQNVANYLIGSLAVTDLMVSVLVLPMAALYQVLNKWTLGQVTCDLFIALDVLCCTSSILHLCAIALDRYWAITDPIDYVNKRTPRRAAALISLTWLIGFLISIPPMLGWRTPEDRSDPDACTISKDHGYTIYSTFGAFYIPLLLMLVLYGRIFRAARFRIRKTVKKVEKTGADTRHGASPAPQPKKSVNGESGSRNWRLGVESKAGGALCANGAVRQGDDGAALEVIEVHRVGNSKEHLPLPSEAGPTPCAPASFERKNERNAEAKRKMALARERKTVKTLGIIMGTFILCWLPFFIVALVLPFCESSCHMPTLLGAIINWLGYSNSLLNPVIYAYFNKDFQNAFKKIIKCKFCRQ
Test: 5-HT1A receptor inhibition (Table 3)
Assay type: binding
Each entry below lists one item and its recorded inhibition at 10 µM value.
outcome_measure: inhibition at 10 µM (%)

smi | outcome_measure | numeric_result
Oc1ccccc1N1CCN(CCCCCn2c3ccccc3c3ccccc32)CC1 | inhibition at 10 µM | 103
CC(=O)N1CCN(CCCCCCn2c3ccccc3c3ccccc32)CC1 | inhibition at 10 µM | 6.2
COc1ccccc1N1CCN(CCCCCC(=O)n2c3ccccc3c3ccccc32)CC1 | inhibition at 10 µM | 108

---

Target: 5-HT2C (Homo sapiens)
Experiment: 5-HT2C receptor inhibition/binding (Tables 1-3)
Details: 10 μM
Counter-ions that a name gives are not always drawn.
Binning scheme for inhibition at 10 µM: c1 = under 50%, c2 = from 50% up to 70%, c3 = 70% and over

compound | answer_label
COc1ccccc1N1CCN(CCCCCC(=O)n2c3ccccc3c3ccccc32)CC1 [Example 2.16] | c2
O=C(CCCCCN1CCN(Cc2ccccc2)CC1)n1c2ccccc2c2ccccc21 [Example 2.13, hydrochloride] | c3
CC1CCN(CCCCC(=O)n2c3ccccc3c3ccccc32)CC1 [Example 2.20, hydrochloride] | c1
CN(CCCCC(=O)n1c2ccccc2c2ccccc21)Cc1ccccc1 [Example 2.18, hydrochloride] | c1
O=C(CCCCCN1CCCC1)n1c2ccccc2c2ccccc21 [Example 2.3, hydrochloride] | c3
O=C(CCCCN1CCC(Cc2ccccc2)CC1)n1c2ccccc2c2ccccc21 [Example 2.26, hydrochloride] | c1
CC1CC(C)CN(CCCCC(=O)n2c3ccccc3c3ccccc32)C1 (centres unmarked) [Example 2.22, hydrochloride] | c2
COc1ccccc1N1CCN(CCCCC(=O)n2c3ccccc3c3ccccc32)CC1 [Example 2.31, hydrochloride] | c2
O=C(CCCCCN1CCC(c2ccccc2)CC1)n1c2ccccc2c2ccccc21 [Example 2.9, hydrochloride] | c2
O=C(CCCCN1CCN(Cc2ccccc2)CC1)n1c2ccccc2c2ccccc21 [Example 2.29, hydrochloride] | c1
O=C(CCCCN1CCC(c2ccccc2)CC1)n1c2ccccc2c2ccccc21 [Example 2.25, hydrochloride] | c2
CC1CC(C)CN(CCCCCC(=O)n2c3ccccc3c3ccccc32)C1 (centres unmarked) [Example 2.6, hydrochloride] | c3
O=C(CCCCCN1CCN(c2noc3ccccc23)CC1)n1c2ccccc2c2ccccc21 [Example 2.14, hydrochloride] | c2
CCCCN(C)CCCCCCn1c2ccccc2c2ccccc21 [Example 2.35] | c2
O=C(CCCCCN1CCCCCC1)n1c2ccccc2c2ccccc21 [Example 2.7, hydrochloride] | c3
CC1CCCN(CCCCCC(=O)n2c3ccccc3c3ccccc32)C1 (centres unmarked) [Example 2.5, hydrochloride] | c3
CN1CCN(CCCCCC(=O)n2c3ccccc3c3ccccc32)CC1 [Example 2.12, hydrochloride] | c3
CC(=O)N1CCN(CCCCC(=O)n2c3ccccc3c3ccccc32)CC1 [Example 2.27, hydrochloride] | c1
CCCCN(C)CCCCCC(=O)n1c2ccccc2c2ccccc21 [Example 2.1, hydrochloride] | c3
CC1CCN(CCCCCC(=O)n2c3ccccc3c3ccccc32)CC1 [Example 2.4] | c3

---

Molecular target: human gene recombinant 5-HT7 receptor expressed in CHO cells (Homo sapiens, UniProt P34969)
Experiment: Binding affinity for the 5-HT7 serotonin receptor ([3H]LSD radioligand)
Structures can show the parent of a compound that is named as a salt.
outcome_measure: Ki (nM)

compound | outcome_measure | numeric_result
O=C(CCCCN1CCN(c2ccccc2O)CC1)n1c2ccccc2c2ccccc21 [Example 2.30, hydrochloride] | Ki | 86
CC1CC(C)CN(CCCCC(=O)n2c3ccccc3c3ccccc32)C1 (stereo not shown) [Example 2.22, hydrochloride] | Ki | 1400
O=C(CCCCCN1CCN(c2ccccc2O)CC1)n1c2ccccc2c2ccccc21 | Ki | 38
Oc1ccccc1N1CCN(CCCCCCn2c3ccccc3c3ccccc32)CC1 | Ki | 89
c1ccc2c(c1)c1ccccc1n2CCCCCCN1CCCCCC1 | Ki | 952
CC1CCCN(CCCCCC(=O)n2c3ccccc3c3ccccc32)C1 (stereo not shown) [Example 2.5, hydrochloride] | Ki | 550
CCCCN(C)CCCCCC(=O)n1c2ccccc2c2ccccc21 [Example 2.1, hydrochloride] | Ki | 680
CN(CCCCC(=O)n1c2ccccc2c2ccccc21)Cc1ccccc1 [Example 2.18, hydrochloride] | Ki | 513
CN(CCCCCCn1c2ccccc2c2ccccc21)Cc1ccccc1 | Ki | 1980
O=C(CCCCN1CCC(c2ccccc2)CC1)n1c2ccccc2c2ccccc21 [Example 2.25, hydrochloride] | Ki | 153

---

Each entry below lists one item and its recorded inhibition at 10 µM value.
Target: 5-HT2C (Homo sapiens, UniProt P28335)
Sequence (P28335 33-458, species assumed): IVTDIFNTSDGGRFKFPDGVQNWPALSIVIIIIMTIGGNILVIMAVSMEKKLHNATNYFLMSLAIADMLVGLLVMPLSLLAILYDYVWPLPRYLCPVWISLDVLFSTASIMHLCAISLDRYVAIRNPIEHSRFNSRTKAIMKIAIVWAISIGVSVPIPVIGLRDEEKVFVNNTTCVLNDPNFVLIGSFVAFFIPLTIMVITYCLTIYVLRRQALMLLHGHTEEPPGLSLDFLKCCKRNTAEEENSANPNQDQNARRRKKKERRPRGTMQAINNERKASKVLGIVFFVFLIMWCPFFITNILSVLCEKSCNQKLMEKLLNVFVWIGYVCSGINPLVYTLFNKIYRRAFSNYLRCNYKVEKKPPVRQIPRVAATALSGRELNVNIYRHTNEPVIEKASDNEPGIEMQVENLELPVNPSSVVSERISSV
Experiment: 5-HT2C receptor inhibition/binding (Tables 1-3)
Conditions: 10 μM
Counter-ions that a name gives are not always drawn.

molecule | unit_abbrev | inhibition at 10 µM
CC1CCCN(CCCCC(=O)n2c3ccccc3c3ccccc32)C1 (stereo not drawn) [Example 2.21, hydrochloride] | % | 50
CC(=O)N1CCN(CCCCCC(=O)n2c3ccccc3c3ccccc32)CC1 [Example 2.11, hydrochloride] | % | 51.3
O=C(CCCCCN1CCC(Cc2ccccc2)CC1)n1c2ccccc2c2ccccc21 [Example 2.10, hydrochloride] | % | 70.4
